Each recorded value in this set is attributed to patent US8835432B2.

Target under test: PI3Kg (Homo sapiens, UniProt P48736)
Construct: Truncated PI3Kγ, residues 114-1102, N-terminally labeled with polyHis tag; polyHis (N); made in house; host or cells: Hi5 insect cells (baculovirus)
Sequence (P48736 114-1102): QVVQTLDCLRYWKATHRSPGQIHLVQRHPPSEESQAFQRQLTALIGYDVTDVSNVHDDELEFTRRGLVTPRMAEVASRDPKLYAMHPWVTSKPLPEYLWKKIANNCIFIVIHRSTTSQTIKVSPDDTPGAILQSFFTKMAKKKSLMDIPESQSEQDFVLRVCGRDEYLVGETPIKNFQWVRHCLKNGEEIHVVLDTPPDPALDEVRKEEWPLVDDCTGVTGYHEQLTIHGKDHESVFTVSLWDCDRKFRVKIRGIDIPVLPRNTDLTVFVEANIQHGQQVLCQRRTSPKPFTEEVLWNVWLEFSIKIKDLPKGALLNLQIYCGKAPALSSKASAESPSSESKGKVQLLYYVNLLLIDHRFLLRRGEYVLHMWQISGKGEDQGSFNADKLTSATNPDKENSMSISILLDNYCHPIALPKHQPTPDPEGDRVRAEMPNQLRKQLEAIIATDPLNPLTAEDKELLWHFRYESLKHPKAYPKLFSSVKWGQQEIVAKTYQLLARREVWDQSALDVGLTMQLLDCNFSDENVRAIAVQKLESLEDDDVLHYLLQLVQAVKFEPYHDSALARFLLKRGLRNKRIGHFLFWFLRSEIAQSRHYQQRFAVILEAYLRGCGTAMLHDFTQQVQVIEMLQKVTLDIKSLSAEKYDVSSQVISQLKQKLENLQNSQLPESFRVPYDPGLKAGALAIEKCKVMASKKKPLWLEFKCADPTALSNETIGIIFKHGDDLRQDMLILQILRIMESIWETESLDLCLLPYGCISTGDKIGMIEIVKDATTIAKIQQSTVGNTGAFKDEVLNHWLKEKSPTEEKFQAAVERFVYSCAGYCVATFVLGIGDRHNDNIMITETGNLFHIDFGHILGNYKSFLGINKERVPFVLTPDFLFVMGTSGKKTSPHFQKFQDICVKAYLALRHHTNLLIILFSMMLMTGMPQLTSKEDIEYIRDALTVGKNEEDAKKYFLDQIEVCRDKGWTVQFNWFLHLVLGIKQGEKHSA
Assay notes: In vitro enzyme assay, PI3K gamma
Type: biochemical
Recorded conditions: ratio of gamma to delta IC50
Recorded PI3K: g/d by entry
Measured property: PI3K: g/d

{"Compound": "C[C@H](Nc1ncnc(N)c1C#N)c1cc2ccc(F)cc2nc1-c1cccc(F)c1 [Example 3]", "Observed value": 12}
{"Compound": "C[C@H](Nc1ncnc(N)c1C#N)c1cc2cccc(F)c2nc1-c1ccccc1S(C)(=O)=O [Example 1]", "Observed value": 537}
{"Compound": "C[C@H](Nc1ncnc(N)c1C#N)c1nc2cccc(Cl)c2nc1-c1ccccc1S(C)(=O)=O [Example 5]", "Observed value": 238}
{"Compound": "C[C@H](Nc1ncnc(N)c1C#N)c1nc2ccc(F)cc2nc1-c1ccccn1 [Example 7]", "Observed value": 333}

====

Test system: PI3K b
Assay notes: In vitro enzyme assay, PI3K beta
Type: biochemical
Recorded conditions: ratio of beta to delta IC50
Measured property: PI3K: b/d

{"Compound string": "C[C@H](Nc1ncnc(N)c1C#N)c1nc2ccc(F)cc2nc1-c1ccccn1", "Observed value": 213}
{"Compound string": "C[C@H](Nc1ncnc(N)c1C#N)c1cc2ccc(F)cc2nc1-c1ccccc1S(C)(=O)=O", "Observed value": 174}
{"Compound string": "C[C@H](Nc1ncnc(N)c1C#N)c1cc2cccc(F)c2nc1-c1ccccc1S(C)(=O)=O", "Observed value": 1580}
{"Compound string": "C[C@H](Nc1ncnc(N)c1C#N)c1cc2ccc(F)cc2nc1-c1cccc(F)c1", "Observed value": 85}
{"Compound string": "C[C@H](Nc1ncnc(N)c1C#N)c1nc2cccc(Cl)c2nc1-c1ccccc1S(C)(=O)=O", "Observed value": 251}
{"Compound string": "C[C@H](Nc1ncnc(N)c1C#N)c1cc2ccc(F)cc2nc1-c1ccccn1", "Observed value": 52}
{"Compound string": "C[C@H](Nc1ncnc(N)c1C#N)c1nc2cccc(C#N)c2nc1-c1ccccc1S(C)(=O)=O", "Observed value": 829}

====

The following molecules are listed with their measured IC50 values.
Target under test: PI3Kb (Homo sapiens, UniProt P42338)
Sequence (P42338 whole entry): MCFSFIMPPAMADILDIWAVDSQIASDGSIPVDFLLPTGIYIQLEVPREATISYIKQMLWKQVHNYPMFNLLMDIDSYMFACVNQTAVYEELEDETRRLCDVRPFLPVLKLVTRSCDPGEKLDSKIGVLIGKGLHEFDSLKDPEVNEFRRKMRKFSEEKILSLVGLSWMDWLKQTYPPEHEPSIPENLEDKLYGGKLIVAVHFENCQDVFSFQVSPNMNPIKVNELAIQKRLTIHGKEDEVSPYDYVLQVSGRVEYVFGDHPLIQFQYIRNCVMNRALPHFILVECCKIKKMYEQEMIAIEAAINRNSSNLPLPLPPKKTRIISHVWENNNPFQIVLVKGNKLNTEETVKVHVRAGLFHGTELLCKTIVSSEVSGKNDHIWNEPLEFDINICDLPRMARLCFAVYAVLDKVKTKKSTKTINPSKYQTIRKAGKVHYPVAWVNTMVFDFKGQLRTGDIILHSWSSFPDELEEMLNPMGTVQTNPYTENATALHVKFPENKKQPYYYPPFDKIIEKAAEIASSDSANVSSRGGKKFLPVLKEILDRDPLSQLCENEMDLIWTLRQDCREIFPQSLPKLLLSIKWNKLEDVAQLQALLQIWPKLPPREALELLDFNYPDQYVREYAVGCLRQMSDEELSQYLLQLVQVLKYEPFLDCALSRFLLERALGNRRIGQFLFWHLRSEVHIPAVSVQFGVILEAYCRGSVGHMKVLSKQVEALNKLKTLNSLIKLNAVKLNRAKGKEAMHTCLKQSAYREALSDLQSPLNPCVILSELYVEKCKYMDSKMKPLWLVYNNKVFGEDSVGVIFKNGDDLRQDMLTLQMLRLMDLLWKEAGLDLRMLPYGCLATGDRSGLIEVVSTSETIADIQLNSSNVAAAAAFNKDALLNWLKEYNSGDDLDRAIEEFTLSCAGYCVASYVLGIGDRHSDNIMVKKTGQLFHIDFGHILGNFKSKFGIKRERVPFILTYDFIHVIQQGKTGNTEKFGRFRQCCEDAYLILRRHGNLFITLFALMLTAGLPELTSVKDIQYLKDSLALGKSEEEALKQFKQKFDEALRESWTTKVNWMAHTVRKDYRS
Sequence (P27986 whole entry partner): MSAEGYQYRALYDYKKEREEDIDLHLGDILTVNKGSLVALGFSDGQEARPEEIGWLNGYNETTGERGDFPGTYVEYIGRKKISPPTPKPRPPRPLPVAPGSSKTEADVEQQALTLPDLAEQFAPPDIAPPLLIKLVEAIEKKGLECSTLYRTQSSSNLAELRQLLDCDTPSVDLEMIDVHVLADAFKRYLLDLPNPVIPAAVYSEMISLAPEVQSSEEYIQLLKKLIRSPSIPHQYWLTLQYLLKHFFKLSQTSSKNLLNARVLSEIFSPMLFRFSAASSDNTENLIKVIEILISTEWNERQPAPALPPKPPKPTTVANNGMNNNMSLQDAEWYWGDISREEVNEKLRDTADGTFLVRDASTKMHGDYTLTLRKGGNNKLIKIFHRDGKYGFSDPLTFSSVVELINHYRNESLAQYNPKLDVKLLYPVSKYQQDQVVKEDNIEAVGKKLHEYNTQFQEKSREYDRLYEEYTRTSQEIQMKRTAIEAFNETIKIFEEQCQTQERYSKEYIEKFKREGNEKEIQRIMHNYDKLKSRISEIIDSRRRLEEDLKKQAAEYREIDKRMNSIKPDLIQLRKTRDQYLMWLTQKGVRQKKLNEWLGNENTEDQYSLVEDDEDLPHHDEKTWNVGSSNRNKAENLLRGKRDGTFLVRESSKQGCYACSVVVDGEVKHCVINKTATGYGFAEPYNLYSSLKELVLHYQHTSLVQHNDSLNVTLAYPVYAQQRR
Assay notes: In vitro enzyme assay, PI3K beta
Format: biochemical
Set-up: Full length p110 subunits of PI3k α, β and δ, N-terminally labeled with polyHis tag; polyHis (N); made in house; host or cells: Sf9 insect cells (baculovirus)
Recorded conditions: read-out: P13K b IC50

{"Compound string": "C[C@H](Nc1ncnc(N)c1C#N)c1cc2ccc(F)cc2nc1-c1ccccc1S(C)(=O)=O", "IC50, nM": 1360}
{"Compound string": "C[C@H](Nc1ncnc(N)c1C#N)c1nc2cccc(C#N)c2nc1-c1ccccc1S(C)(=O)=O", "IC50, nM": 5800}
{"Compound string": "C[C@H](Nc1ncnc(N)c1C#N)c1nc2ccc(F)cc2nc1-c1ccccn1", "IC50, nM": 2490}
{"Compound string": "C[C@H](Nc1ncnc(N)c1C#N)c1cc2ccc(F)cc2nc1-c1ccccn1", "IC50, nM": 522}
{"Compound string": "C[C@H](Nc1ncnc(N)c1C#N)c1cc2cccc(F)c2nc1-c1ccccc1S(C)(=O)=O", "IC50, nM": 4740}
{"Compound string": "C[C@H](Nc1ncnc(N)c1C#N)c1nc2cccc(Cl)c2nc1-c1ccccc1S(C)(=O)=O", "IC50, nM": 652}
{"Compound string": "C[C@H](Nc1ncnc(N)c1C#N)c1cc2ccc(F)cc2nc1-c1cccc(F)c1", "IC50, nM": 434}

====

Target under test: PI3Kg (Homo sapiens, UniProt P48736)
Construct: Truncated PI3Kγ, residues 114-1102, N-terminally labeled with polyHis tag; polyHis (N); made in house; host or cells: Hi5 insect cells (baculovirus)
Assay notes: In vitro enzyme assay, PI3K gamma
Format: biochemical
Recorded conditions: ratio of gamma to delta IC50
Experimental: Full length p110 subunits of PI3k α, β and δ, N-terminally labeled with polyHis tag, were coexpressed with p85 with Baculo virus expression vectors in sf9 insect cells. P110/p85 heterodimers were purified by sequential Ni-NTA, Q-HP, Superdex-100 chromatography. Purified α, β and δ isozymes were stored at −20° C. in 20 mM Tris, pH 8, 0.2M NaCl, 50% glycerol, 5 mM DTT, 2 mM Na cholate. […]
Measured property: PI3K: g/d

{"Compound string": "C[C@H](Nc1ncnc(N)c1C#N)c1nc2cccc(C#N)c2nc1-c1ccccc1S(C)(=O)=O", "Observed value": 400}
{"Compound string": "C[C@H](Nc1ncnc(N)c1C#N)c1cc2ccc(F)cc2nc1-c1ccccc1S(C)(=O)=O", "Observed value": 103}
{"Compound string": "C[C@H](Nc1ncnc(N)c1C#N)c1cc2ccc(F)cc2nc1-c1ccccn1", "Observed value": 45}

====

Target under test: UniProt P42338
Assay notes: Forkhead translocation assay (MDA MB468 Forkhead-DiversaGFP cells)
Format: cell-based
Design: endogenous in cells; host or cells: MDA MB468 (Forkhead-DiversaGFP) cells
Recorded conditions: first value of the cell; MDA468 forkhead; read-out: PI3KbMDA468 FH
pIC50: −log10 of the molar value.
Measured property: pIC50

{"Compound string": "C[C@H](Nc1ncnc(N)c1C#N)c1cc2cccc(F)c2nc1-c1ccccc1S(C)(=O)=O", "Target under test": "UniProt P42338", "Rel": "=", "Observed value": 5.22}
{"Compound string": "C[C@H](Nc1ncnc(N)c1C#N)c1nc2cccc(Cl)c2nc1-c1ccccc1S(C)(=O)=O", "Target under test": "UniProt P42338", "Rel": "<", "Observed value": 5.00}
{"Compound string": "C[C@H](Nc1ncnc(N)c1C#N)c1cc2ccc(F)cc2nc1-c1ccccn1", "Target under test": "UniProt P42338", "Rel": "=", "Observed value": 5.71}
{"Compound string": "C[C@H](Nc1ncnc(N)c1C#N)c1nc2ccc(F)cc2nc1-c1ccccn1", "Target under test": "UniProt P42338", "Rel": "<", "Observed value": 5.00}
{"Compound string": "C[C@H](Nc1ncnc(N)c1C#N)c1cc2ccc(F)cc2nc1-c1cccc(F)c1", "Target under test": "UniProt P42338", "Rel": "=", "Observed value": 5.42}
{"Compound string": "C[C@H](Nc1ncnc(N)c1C#N)c1cc2ccc(F)cc2nc1-c1ccccc1S(C)(=O)=O", "Target under test": "UniProt P42338", "Rel": "<", "Observed value": 5.00}
